System: UO-31 renal
Experiment: NCI tumour cell line growth inhibition, 48 h
Here, each record is paired with measured GI50 data.

A selection of reference data follows.
query_smiles=COc1cc2c(cc1OC)-c1ccc3cc4c(cc3c1N(CCN1CCCC1)C2)OCO4 reported_value="1.51 µM"
query_smiles=Nc1ncnc2sc(=S)c3c(c12)CCC3 reported_value="43.8 µM"
query_smiles=O=C(CCN1CCCC1)Nc1ccc2c(NCc3ccc(F)cc3)c3ccccc3nc2c1 reported_value="1.33 µM"
query_smiles=CCOC(=O)c1c2c(n(CC(C)C)c1C)-c1nc[nH]c1C(=O)C2=O reported_value="16.3 µM"
query_smiles=COc1cccc(OC(=O)c2ccccc2Nc2ccnc(C(F)(F)F)c2)c1 reported_value="61.2 µM"

Challenge: Can you look up the measured GI50 of CC(=O)[O][Pb]([O]C(C)=O)([c]1ccccc1)[c]1ccccc1 for me?
Response given: > 100 µM
